- procedure text: Quantitative High-Throughput drug screen in 47 multiple myeloma cell lines against the NCATS MIPE library collection: RPMI8226_ATCC cell viability assay (AID 1919871); also: nearly all actives have a fitted effect of over 30% in size; also: potency is read from the fitted curve at half-maximal effect
- measurement conditions: RPMI8226 myeloma viability, CellTiter-Glo ATP luminescence, 48 h; series mostly up to 45.8 µM
Inconclusive results are not listed. Calls of active or inactive are those of the source. Calls follow the shape of the dose curve; as a rule, active = well fitted cell-killing curve with a large enough effect; inconclusive = small, poorly fitted or top-dose-only effect, or effect the other way; inactive = no such curve, though single readings can be large or run the other way.
measured quantity: Potency

Sample answers from the record:
Please give measured Potency of the following entry: `CNCC[C@H](Oc1cccc2ccccc12)c1cccs1`
23.5 µM (active)

Please give measured Potency of the following entry: `COc1nc(N)nc2c1ncn2[C@@H]1O[C@H](CO)[C@@H](O)[C@@H]1O`
inactive

Please give measured Potency of the following entry: `COc1cc2c(Nc3ccc(Br)cc3F)ncnc2cc1OCC1CCN(C)CC1`
23.5 µM (active)

Please give measured Potency of the following entry: CC1CC2C3CCC4=CC(=O)C=C[C@]4(C)[C@@]3(F)[C@@H](O)C[C@]2(C)[C@@]1(O)C(=O)CO (stereo partly drawn)
0.0296 µM (active)

Please give measured Potency of the following entry: CCOCC(O)COc1ccc(NC(=O)CC[S+](C)C)cc1 (stereo not drawn)
inactive

Please give measured Potency of the following entry: `COCCCOc1cc(C[C@@H](C[C@H](N)[C@@H](O)C[C@H](C(=O)NCC(C)(C)C(N)=O)C(C)C)C(C)C)ccc1OC`
inactive

Others:
Please give measured Potency of the following entry: `COc1cc2nc(N3CCCN(C)CC3)nc(NC3CCN(Cc4ccccc4)CC3)c2cc1OC`
9.35 µM (active)

Please give measured Potency of the following entry: `CS(=O)(=O)c1ccc([C@@H](O)[C@@H](CO)NC(=O)C(Cl)Cl)cc1`
2.35 µM (active)

Please give measured Potency of the following entry: CC(C(=O)O)c1ccc2c(c1)CC(=O)c1ccccc1S2 (stereo not drawn)
inactive

----------
- System: CP250
- procedure text: qHTS profiling for inhibitors of Plasmodium falciparum proliferation (AID 504749); also: nearly all actives have a fitted effect of over 60% in size
- measurement conditions: P. falciparum in erythrocytes, SYBR Green DNA, 72 h; series mostly up to 28.7 µM
Results filed as inconclusive are left out. The source made the active and inactive calls. Calls follow the shape of the dose curve; as a rule, active = well fitted inhibition curve with a large enough effect; inconclusive = small, poorly fitted or top-dose-only effect; inactive = flat fitted curve, though single readings scatter.
# output must be one of class 1 (active), class 0 (inactive)

Use the examples below as a reference point.
Name the outcome recorded for CC(N)C12CC3CC(CC(C3)C1)C2 (stereo not drawn) in the assay.
class 0

Name the outcome recorded for `O=c1cc(O)c(Cl)c[nH]1` in the assay.
class 0

Name the outcome recorded for `CC(C)(C#N)c1cc(Cn2cncn2)cc(C(C)(C)C#N)c1` in the assay.
class 0

Name the outcome recorded for `S=P(N1CC1)(N1CC1)N1CC1` in the assay.
class 0

Name the outcome recorded for `CC1=NN(c2ccccc2)C(=O)C1` in the assay.
class 0

Name the outcome recorded for `CCn1cc(C(=O)O)c(=O)c2cc(F)c(N3CCNCC3)nc21` in the assay.
class 0

Name the outcome recorded for Cc1oc(=O)oc1CN1CCN(c2cc3c(cc2F)c(=O)c(C(=O)O)c2n3C(C)S2)CC1 (stereo not drawn) in the assay.
class 1

Name the outcome recorded for CN(CCOc1ccc(CC2SC(=O)NC2=O)cc1)c1ccccn1 (stereo not drawn) in the assay.
class 0

Others:
Name the outcome recorded for `COc1ccc(C(=O)CC(=O)c2ccc(C(C)(C)C)cc2)cc1` in the assay.
class 0

Name the outcome recorded for `Nc1[nH]c(=O)ncc1F` in the assay.
class 0

Name the outcome recorded for `COc1ccc(-c2ccc3cc(C(=O)O)ccc3c2)cc1C12CC3CC(CC(C3)C1)C2` in the assay.
class 0

Name the outcome recorded for CCOc1cc(N)c(Cl)cc1C(=O)NCC1CN(Cc2ccc(F)cc2)CCO1 (stereo not drawn) in the assay.
class 1

Name the outcome recorded for `Oc1c(Cl)cc(Cl)c2cccnc12` in the assay.
class 1

Name the outcome recorded for `CCCc1nc(C)c2c(=O)[nH]c(-c3cc(S(=O)(=O)N4CCN(CC)CC4)ccc3OCC)nn12` in the assay.
class 0

Name the outcome recorded for `CC[C@H](C)C(=O)O[C@H]1C[C@@H](C)C=C2C=C[C@H](C)[C@H](CC[C@@H]3C[C@@H](O)CC(=O)O3)[C@H]21` in the assay.
class 0

Name the outcome recorded for `CC(C)(Sc1cc(C(C)(C)C)c(O)c(C(C)(C)C)c1)Sc1cc(C(C)(C)C)c(O)c(C(C)(C)C)c1` in the assay.
class 0

Name the outcome recorded for C1CCC(C(CC2CCCCN2)C2CCCCC2)CC1 (stereo not drawn) in the assay.
class 1

Name the outcome recorded for CNC1CCCN(c2c(F)cc3c(=O)c(C(=O)O)cn(C4CC4)c3c2OC)C1 (stereo not drawn) in the assay.
class 0

Name the outcome recorded for `NC(=O)N1c2ccccc2CC(=O)c2ccccc21` in the assay.
class 0

Name the outcome recorded for `Nc1ccc(S(=O)(=O)Nc2ccccn2)cc1` in the assay.
class 0

Name the outcome recorded for `CC[C@H](NC(C)C)[C@H](O)c1ccc(O)c2[nH]c(=O)ccc12` in the assay.
class 0

Name the outcome recorded for `COc1cc2c(Nc3ccc(Br)cc3F)ncnc2cc1OCC1CCN(C)CC1` in the assay.
class 1

Name the outcome recorded for `OC(Cn1cncn1)(Cn1cncn1)c1ccc(F)cc1F` in the assay.
class 0
